Tested on: Pasteurella multocida
test.method.notes: minimum inhibitory concentration (MIC)
condition.notes: isolate (source animal id): 275
value.type: minimum inhibitory concentration (µg/mL)
Numbers only, in µg/mL.

# compound, unit.abbreviation, minimum inhibitory concentration
data = [
    ("CCCN1C[C@H](C)[C@@H](O)[C@](C)(O)[C@@H](CC)OC(=O)[C@H](C)[C@@H](O[C@H]2C[C@@](C)(OC)[C@@H](O)[C@H](C)O2)[C@H](C)[C@@H](O[C@@H]2O[C@H](C)C[C@H](N(C)C)[C@H]2O)[C@](C)(O)C[C@H]1C [Gamithromycin]", "µg/mL", 8),
]

Field: next compound
response.value for CN[C@@H]1[C@H](O)[C@H](NC)[C@H]2O[C@@]3(O)C(=O)C[C@@H](C)O[C@H]3O[C@@H]2[C@H]1O [Spectinomycin] (field: minimum inhibitory concentration) = 32

----------
Task for the reader: assign each of the following compounds its reported minimum inhibitory concentration.
System: Escherichia coli
test.method.notes: minimum inhibitory concentration (MIC)
condition.notes: isolate (source animal id): 134

Return reported minimum inhibitory concentration values for all items listed beneath this line.
1. CC[C@H]1OC(=O)C[C@@H](O)[C@H](C)[C@@H](O[C@@H]2O[C@H](C)[C@@H](O)[C@H](N(C)C)[C@H]2O)[C@@H](CCN2C[C@H](C)C[C@H](C)C2)C[C@@H](C)C(=O)/C=C/C(C)=C/[C@@H]1CO[C@@H]1O[C@H](C)[C@@H](O)[C@@H](OC)[C@H]1OC
2. CCN1CCN(c2cc3c(cc2F)c(=O)c(C(=O)O)cn3C2CC2)CC1
3. COc1cc(NS(=O)(=O)c2ccc(N)cc2)nc(OC)n1
4. NC[C@@H]1O[C@H](O[C@H]2[C@@H](O)[C@H](O[C@@H]3[C@@H](O)[C@H](N)C[C@H](N)[C@H]3O[C@H]3O[C@H](CN)[C@@H](O)[C@H](O)[C@H]3N)O[C@@H]2CO)[C@H](N)[C@@H](O)[C@@H]1O

Completion:
1. > 16 µg/mL
2. ≤ 0.12 µg/mL
3. > 256 µg/mL
4. ≤ 4 µg/mL

----------
Test system: Pasteurella multocida
test.method.notes: minimum inhibitory concentration (MIC)
condition.notes: isolate (source animal id): 203
What minimum inhibitory concentration was measured for each of the following?

Some solved cases for reference:
# compound, minimum inhibitory concentration
data = [
    ("CC1(C)S[C@@H]2[C@H](NC(=O)[C@H](N)c3ccccc3)C(=O)N2[C@H]1C(=O)O [Ampicillin]", "≤ 0.25 µg/mL"),
    ("C=C[C@]1(C)C[C@@H](OC(=O)CSCCN(CC)CC)[C@]2(C)[C@H](C)CC[C@]3(CCC(=O)[C@H]32)[C@@H](C)[C@@H]1O [Tiamulin]", "16 µg/mL"),
    ("CCN1CCN(c2cc3c(cc2F)c(=O)c(C(=O)O)cn3C2CC2)CC1 [Enrofloxacin]", "≤ 0.12 µg/mL"),
    ("CCCNC[C@]1(O)[C@H](C)O[C@@H](O[C@H]2[C@H](C)[C@@H](O[C@@H]3O[C@H](C)C[C@H](N(C)C)[C@H]3O)[C@](C)(O)C[C@@H](C)CN[C@H](C)[C@@H](O)[C@](C)(O)[C@@H](CC)OC(=O)[C@@H]2C)C[C@@]1(C)OC [Tulathromycin]", "≤ 8 µg/mL"),
]

The reported minimum inhibitory concentration of the compound CCC[C@@H]1C[C@@H](C(=O)N[C@@H]([C@H]2O[C@H](SC)[C@H](O)[C@@H](O)[C@H]2O)[C@H](C)Cl)N(C)C1 [Clindamycin] was > 16 µg/mL
